# assay.procedure: NCI Yeast Anticancer Drug Screen. Data for the mlh1 rad18 strain (AID 175)
# study.conditions: S. cerevisiae mlh1 rad18 strain growth inhibition; at 5.0 µM (retest, dose inferred, filed as 0.5)
This is part of a sample that, as a whole, favours compounds with a hit. Of some 79,000 tested, about 15% had one in any assay. Calls of active or inactive are those of the source. Rule as the data show it: active = growth inhibition above about 70%; inactive = the rest. *1 amine or outer side, *2 acyl side, *3 side chain or, on linkers, in order; H or OH if unused. Where a SMILES comes first, the peptide text is derived from it. [ ]: non-standard residue; d: D form. The star is where a group is joined. ξ: configuration not given here. X5 = CCC(=O)CC1CC(C)CC(C(=O)[*:2])N1[*:1]; X4 = CCCCCCCCC(C)C(=O)*; ξD = NC(CC(=O)O)C(=O)O; Aib = CC(C)(N)C(=O)O; X6 = CC(CN(C)CCO)N*
Choose the fitting class; nothing outside active, inactive is accepted.

As a guide, the following entries are already answered.
compound	group.label
COc1c(/C=C/C=O)cc2c(c1OC)OCO2	inactive
NCC(=O)NC(CC(=O)O)C(=O)O (stereo not drawn) (H-Gly-[ξD]-OH)	inactive
CC(C)(C)c1ccc(O)c(-c2ccccc2)c1	inactive

Please share the test call associated with CC(=O)c1ccc2c(c1)sc1cc(C(C)=O)ccc12 .
inactive

Please share the test call associated with O=C1C=C(Cl)C(=O)c2ccccc21 .
inactive

Please share the test call associated with O=C(/C=C/c1ccccc1)CCC1C(=O)c2ccccc2C1=O .
inactive

Please share the test call associated with CC1(C)CCC[C@]2(C)[C@@H](C=O)C(C=O)=CC[C@@H]12 .
inactive

Please share the test call associated with Nc1ncnc2c(C3OC(CO)C(O)C3O)c[nH]c12 (stereo not drawn) .
inactive

Please share the test call associated with CCCCCCCCC(C)C(=O)N1CCCC1C(=O)N1C(CC(=O)CC)CC(C)CC1C(=O)NC(C)C(=O)NC(C)(C)C(=O)NC(C)(C)C(=O)NC(C(=O)NC(C)C(=O)NC(C)(C)C(=O)NC(C)(C)C(=O)NC(C)CN(C)CCO)C(C)CC (stereo not drawn) (X4-P[X5]A[Aib][Aib]IA[Aib][Aib]-X6; configuration not given here) .
active

Please share the test call associated with c1ccc(-c2nc(N=C3N=c4ccccc4=N3)[nH]c2-c2ccccn2)nc1 .
inactive

Please share the test call associated with CC(C)(C)CC(C)(C)c1ccc(OCCOCCSC(=N)N)cc1 .
inactive

Please share the test call associated with COc1cccc(NC(=O)c2c(SC)n[nH]c2N)c1 .
inactive

Please share the test call associated with C=C(C)C1CC2(C)C(C)CC(O)CC2C(OC(=O)C=C(C)C)C1O (stereo not drawn) .
inactive

Please share the test call associated with O=C1C=CC(=O)N1C1CCCCCCCCCCC1 .
inactive

Please share the test call associated with Clc1ccccc1C(c1ccccc1)(c1ccccc1)n1ccnc1 .
inactive

Please share the test call associated with OC(c1cc(-c2ccc(Cl)cc2)nc2c(Cl)cccc12)C1CCCCN1 (stereo not drawn) .
inactive

Please share the test call associated with COc1ccc(/C(C#N)=C/c2cccc(N)c2)cc1 .
inactive

Please share the test call associated with CC(C)N=C(N)/N=C(\N)Nc1ccc2ccc3ccccc3c2c1 .
inactive

* * *

So I've got a bunch of compounds here, and I need their growth inhibition values.
# assay.procedure: NCI Yeast Anticancer Drug Screen. Data for the rad50 strain (AID 155);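 also: 0% = growth of vehicle-only cultures of the same strain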
# study.conditions: S. cerevisiae rad50 strain growth inhibition; at 5.0 µM (retest, dose inferred, filed as 0.5); hits give high values
The panel holds about 79,000 compounds, 15% with a hit somewhere; the sample as a whole holds those more often.
Answers are plain numbers, in %.

compound	readout.label	value.observed
N#Cc1c2ccccc2nc2ccccc12	growth inhibition	37
CCOC(=O)c1c(C)[nH]c2ccc(O)cc12	growth inhibition	6
CN(C)CCSC1=Nc2ccc(Cl)cc2C(c2ccccc2Cl)N(C)C1 (stereo not given)	growth inhibition	8
O=C1C=CC(=O)C2=C1CC=CC2	growth inhibition	-12
CC(=O)Nc1nc(-c2ccccc2)cs1	growth inhibition	1
Cc1ccc(/C=N/Nc2cc(C)c3cccc(C)c3n2)s1	growth inhibition	9
[O-][n+]1cccc2cccc(O)c21	growth inhibition	2
CCCc1cc(=O)oc2c3c(c4c(c12)OC(C)(C)CC4)OC(C)[C@H](C)[C@@H]3O (stereo not given in full)	growth inhibition	36

Look at each compound and report its growth inhibition.
1. Cc1cc(C(=O)c2ccccc2Cl)ccc1O
2. O=C(CBr)C(Br)C(Br)c1ccccc1 (stereo not given)
3. C=[CH][Sn]([CH]=C)([O]c1cccc2cccnc12)[O]c1cccc2cccnc12
4. CN1CCC(CN2c3ccccc3Sc3ccccc32)C1 (stereo not given)
5. O=C(O)c1ccc2c(c1)C(=O)c1ccccc1C2=O
6. CCOc1cc(F)c([N+](=O)[O-])cc1[N+](=O)[O-]
7. CC(C)(C)N/N=C(/Cc1nc2c3c(ccc2[nH]c1=O)C(=O)c1ccccc1C3=O)C(=O)NC1=C(Cl)C(=O)c2ccccc2C1=O
8. O=C(O)/C=C\C(=O)NNc1ccccc1

1: 10; 2: 98; 3: 27; 4: 2; 5: -1; 6: 92; 7: 27; 8: 12

Look at each compound and report its growth inhibition.
1. O=C(/C=C/c1ccccc1)c1ccc(N=Cc2ccccc2)cc1
2. CCSC(=O)c1ccc([N+](=O)[O-])o1
3. O=C1c2ccccc2-c2ccc(O)cc21
4. Clc1ccccc1C(c1ccccc1)(c1ccccc1)n1ccnc1
5. O=C1C=Cc2ccccc2/C1=C/c1nc(-c2ccccc2)oc1O
6. COc1ccc(NC(=O)/C(=C/N2C(=O)/C(=C/c3ccc(OC)c(OC)c3)NC2=S)C(C)=O)cc1
7. OCCOSCCO

-37
20
58
44
-2
5
5

Look at each compound and report its growth inhibition.
1. CCCCCCCCCCCCN1C(C)=CS/C1=C\C=C\c1scc(C)[n+]1CCCCCCCCCCCC
2. NC1=C(Br)C(=O)c2ncccc2C1=O

9
56
